Where do these numbers come from? They come from ChEMBL document CHEMBL3232716.

PROTOCOL_TEXT: Binding affinity to cholesterol containing synthetic POPC/POPG liposomal membrane at 20 uM by circular dichroism analysis
Type: physicochemical
TEST_CONTEXT: artificial membrane
Square brackets hold non-standard residues; d marks the D form. Peptide text beside a SMILES is read from it. hArg = N=C(N)NCCCC[C@H](N)C(=O)O; Nphe = O=C(O)CNCc1ccccc1

{"COMPOUND": "CC(=O)N[C@@H](CCCCN)C(=O)N(CCC(=O)N[C@@H](CCCCNC(=N)N)C(=O)N(CCC(=O)N[C@@H](CCCCN)C(=O)N(CCC(=O)N[C@@H](CCCCNC(=N)N)C(=O)N(CCC(=O)N[C@@H](CCCCN)C(=O)N(CCC(=O)N[C@@H](CCCCNC(=N)N)C(=O)N(CCC(N)=O)Cc1ccccc1)Cc1ccccc1)Cc1ccccc1)Cc1ccccc1)Cc1ccccc1)Cc1ccccc1", "Activity": "Not Active"}
{"COMPOUND": "CC(=O)N[C@@H](CCCCN)C(=O)N(CCC(=O)N[C@@H](CCCCNC(=N)N)C(=O)N(CCC(=O)N[C@@H](CCCCN)C(=O)N(CCC(=O)N[C@@H](CCCCNC(=N)N)C(=O)N(CCC(=O)N[C@@H](CCCCN)C(=O)N(CCC(=O)N[C@@H](CCCCNC(=N)N)C(=O)N(CCC(N)=O)[C@@H](C)c1ccccc1)[C@@H](C)c1ccccc1)[C@@H](C)c1ccccc1)[C@@H](C)c1ccccc1)[C@@H](C)c1ccccc1)[C@@H](C)c1ccccc1", "Activity": "Not Active"}
{"COMPOUND": "CC(=O)N[C@@H](CCCCN)C(=O)N(CC(=O)N[C@@H](CCCCNC(=N)N)C(=O)N(CC(=O)N[C@@H](CCCCN)C(=O)N(CC(=O)N[C@@H](CCCCNC(=N)N)C(=O)N(CC(=O)N[C@@H](CCCCN)C(=O)N(CC(=O)N[C@@H](CCCCNC(=N)N)C(=O)N(CC(N)=O)Cc1ccccc1)Cc1ccccc1)Cc1ccccc1)Cc1ccccc1)Cc1ccccc1)Cc1ccccc1 (Ac-K[Nphe][hArg][Nphe]K[Nphe][hArg][Nphe]K[Nphe][hArg][Nphe]-NH2)", "Activity": "Not Active"}

====

Tested on: HeLa
PROTOCOL_TEXT: Cytotoxicity against human HeLa cells after 1 hr by MTS/PMS assay
Format: cell-based
pIC50: −log10 of the molar value. Square brackets hold non-standard residues; d marks the D form. Peptide text beside a SMILES is read from it. hArg = N=C(N)NCCCC[C@H](N)C(=O)O; Nphe = O=C(O)CNCc1ccccc1
ASSAY_ENDPOINT: pIC50

{"COMPOUND": "CC(=O)N[C@@H](CCCCN)C(=O)N(CCC(=O)N[C@@H](CCCCNC(=N)N)C(=O)N(CCC(=O)N[C@@H](CCCCN)C(=O)N(CCC(=O)N[C@@H](CCCCNC(=N)N)C(=O)N(CCC(=O)N[C@@H](CCCCN)C(=O)N(CCC(=O)N[C@@H](CCCCNC(=N)N)C(=O)N(CCC(N)=O)[C@@H](C)c1ccccc1)[C@@H](C)c1ccccc1)[C@@H](C)c1ccccc1)[C@@H](C)c1ccccc1)[C@@H](C)c1ccccc1)[C@@H](C)c1ccccc1", "EXPERIMENTAL_TARGET": "HeLa", "RECORDED_VALUE": 4.41}
{"COMPOUND": "CC(=O)N[C@@H](CCCCN)C(=O)N(CC(=O)N[C@@H](CCCCNC(=N)N)C(=O)N(CC(=O)N[C@@H](CCCCN)C(=O)N(CC(=O)N[C@@H](CCCCNC(=N)N)C(=O)N(CC(=O)N[C@@H](CCCCN)C(=O)N(CC(=O)N[C@@H](CCCCNC(=N)N)C(=O)N(CC(N)=O)Cc1ccccc1)Cc1ccccc1)Cc1ccccc1)Cc1ccccc1)Cc1ccccc1)Cc1ccccc1 (Ac-K[Nphe][hArg][Nphe]K[Nphe][hArg][Nphe]K[Nphe][hArg][Nphe]-NH2)", "EXPERIMENTAL_TARGET": "HeLa", "RECORDED_VALUE": 3.50}

====

PROTOCOL_TEXT: Binding affinity to synthetic POPC/POPG liposomal membrane at 20 uM by circular dichroism analysis
Format: physicochemical
TEST_CONTEXT: artificial membrane

{"SMILES_INPUT": "CC(=O)N[C@@H](CCCCN)C(=O)N(CCC(=O)N[C@@H](CCCCNC(=N)N)C(=O)N(CCC(=O)N[C@@H](CCCCN)C(=O)N(CCC(=O)N[C@@H](CCCCNC(=N)N)C(=O)N(CCC(=O)N[C@@H](CCCCN)C(=O)N(CCC(=O)N[C@@H](CCCCNC(=N)N)C(=O)N(CCC(N)=O)Cc1ccccc1)Cc1ccccc1)Cc1ccccc1)Cc1ccccc1)Cc1ccccc1)Cc1ccccc1", "Activity": "Not Active"}
{"SMILES_INPUT": "CC(=O)N[C@@H](CCCCN)C(=O)N(CCC(=O)N[C@@H](CCCCNC(=N)N)C(=O)N(CCC(=O)N[C@@H](CCCCN)C(=O)N(CCC(=O)N[C@@H](CCCCNC(=N)N)C(=O)N(CCC(=O)N[C@@H](CCCCN)C(=O)N(CCC(=O)N[C@@H](CCCCNC(=N)N)C(=O)N(CCC(=O)N[C@@H](CCCCN)C(=O)N(CCC(N)=O)Cc1ccccc1)Cc1ccccc1)Cc1ccccc1)Cc1ccccc1)Cc1ccccc1)Cc1ccccc1)Cc1ccccc1", "Activity": "Not Active"}
{"SMILES_INPUT": "CC(=O)N[C@@H](CCCCN)C(=O)N(CCC(=O)N[C@@H](CCCCNC(=N)N)C(=O)N(CCC(=O)N[C@@H](CCCCN)C(=O)N(CCC(=O)N[C@@H](CCCCNC(=N)N)C(=O)N(CCC(=O)N[C@@H](CCCCN)C(=O)N(CCC(=O)N[C@@H](CCCCNC(=N)N)C(=O)N(CCC(N)=O)[C@@H](C)c1ccccc1)[C@@H](C)c1ccccc1)[C@@H](C)c1ccccc1)[C@@H](C)c1ccccc1)[C@@H](C)c1ccccc1)[C@@H](C)c1ccccc1", "Activity": "Not Active"}

====

PROTOCOL_TEXT: Binding affinity to cholesterol containing synthetic POPC/POPG liposomal membrane at 20 uM by circular dichroism analysis
Format: physicochemical
TEST_CONTEXT: artificial membrane
Square brackets hold non-standard residues; d marks the D form. Peptide text beside a SMILES is read from it. hArg = N=C(N)NCCCC[C@H](N)C(=O)O; Nphe = O=C(O)CNCc1ccccc1
ASSAY_ENDPOINT: Activity

{"COMPOUND": "CC(=O)N[C@@H](CCCCNC(=N)N)C(=O)N(CC(=O)N[C@@H](CCCCN)C(=O)N(CC(=O)N[C@@H](CCCCNC(=N)N)C(=O)N(CC(=O)N[C@@H](CCCCN)C(=O)N(CC(=O)N[C@@H](CCCCNC(=N)N)C(=O)N(CC(N)=O)Cc1ccccc1)Cc1ccccc1)Cc1ccccc1)Cc1ccccc1)Cc1ccccc1 (Ac-[hArg][Nphe]K[Nphe][hArg][Nphe]K[Nphe][hArg][Nphe]-NH2)", "RECORDED_VALUE": "Not Active"}
{"COMPOUND": "CC(=O)N[C@@H](CCCCNC(=N)N)C(=O)N(CCC(=O)N[C@@H](CCCCN)C(=O)N(CCC(=O)N[C@@H](CCCCNC(=N)N)C(=O)N(CCC(=O)N[C@@H](CCCCN)C(=O)N(CCC(=O)N[C@@H](CCCCNC(=N)N)C(=O)N(CCC(N)=O)[C@@H](C)c1ccccc1)[C@@H](C)c1ccccc1)[C@@H](C)c1ccccc1)[C@@H](C)c1ccccc1)[C@@H](C)c1ccccc1", "RECORDED_VALUE": "Not Active"}

====

PROTOCOL_TEXT: Cytotoxicity against mouse NIH/3T3 cells after 1 hr by MTS/PMS assay
Type: cell-based
TEST_CONTEXT: NIH3T3, 1 h
# IC50 values compiled below
ASSAY_ENDPOINT: IC50 (µM)

{"SMILES_INPUT": "CC(=O)N[C@@H](CCCCN)C(=O)N(CCC(=O)N[C@@H](CCCCNC(=N)N)C(=O)N(CCC(=O)N[C@@H](CCCCN)C(=O)N(CCC(=O)N[C@@H](CCCCNC(=N)N)C(=O)N(CCC(=O)N[C@@H](CCCCN)C(=O)N(CCC(=O)N[C@@H](CCCCNC(=N)N)C(=O)N(CCC(N)=O)Cc1ccccc1)Cc1ccccc1)Cc1ccccc1)Cc1ccccc1)Cc1ccccc1)Cc1ccccc1", "ASSAY_ENDPOINT": "IC50", "RECORDED_VALUE": 362}
{"SMILES_INPUT": "CC(=O)N[C@@H](CCCCN)C(=O)N(CCC(=O)N[C@@H](CCCCNC(=N)N)C(=O)N(CCC(=O)N[C@@H](CCCCN)C(=O)N(CCC(=O)N[C@@H](CCCCNC(=N)N)C(=O)N(CCC(=O)N[C@@H](CCCCN)C(=O)N(CCC(=O)N[C@@H](CCCCNC(=N)N)C(=O)N(CCC(=O)N[C@@H](CCCCN)C(=O)N(CCC(N)=O)[C@@H](C)c1ccccc1)[C@@H](C)c1ccccc1)[C@@H](C)c1ccccc1)[C@@H](C)c1ccccc1)[C@@H](C)c1ccccc1)[C@@H](C)c1ccccc1)[C@@H](C)c1ccccc1", "ASSAY_ENDPOINT": "IC50", "RECORDED_VALUE": 89}
{"SMILES_INPUT": "CC(=O)N[C@@H](CCCCNC(=N)N)C(=O)N(CCC(=O)N[C@@H](CCCCN)C(=O)N(CCC(=O)N[C@@H](CCCCNC(=N)N)C(=O)N(CCC(=O)N[C@@H](CCCCN)C(=O)N(CCC(=O)N[C@@H](CCCCNC(=N)N)C(=O)N(CCC(N)=O)[C@@H](C)c1ccccc1)[C@@H](C)c1ccccc1)[C@@H](C)c1ccccc1)[C@@H](C)c1ccccc1)[C@@H](C)c1ccccc1", "ASSAY_ENDPOINT": "IC50", "RECORDED_VALUE": 237}
